Origin of the recorded values: patent US20260055186A1

tested-system: T1, human CD8 on human T cells (human, UniProt P01732 22-235)
T1 construct: whole, on cells; the antibodies were raised against human CD8 alpha; also called CD8 on human CD8+ T cells; hCD8
T1 sequence (P01732 22-235): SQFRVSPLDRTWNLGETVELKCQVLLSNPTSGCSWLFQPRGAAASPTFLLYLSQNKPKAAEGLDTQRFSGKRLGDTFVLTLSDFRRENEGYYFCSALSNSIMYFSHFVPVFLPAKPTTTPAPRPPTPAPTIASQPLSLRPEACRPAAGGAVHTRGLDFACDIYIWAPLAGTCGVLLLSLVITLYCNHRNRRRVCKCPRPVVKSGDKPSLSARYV
experiment-summary: flow cytometry on human CD8+ T cells, titration
readout-type: Fold Change to Parental Apparent KD (fold)
Write the value in fold as a bare number.

Example binders with recorded Fold Change to Parental Apparent KD:
humanized 03A01-VH3-VK1 (antibody, human IgG1, V domains shown, human IgG1 format; also called 03-VH3/VK1) VH: EVQFQESGPGLVKPSQTLSLTCTVSGYSITSDFAWNWIRQPPGKGLEWMGYISYSGDTNYNPSLKSRVTISRDTSKNQFSLKLSSVTAADTAVYYCTIRGYYTDSAFVFWGQGTLVTVSS VL: DIQMTQSSSTLSVSLGDRVTITCKASDHINNWLAWYQQKPGKAPRLLISGATSLETGVPSRFSGSGSGLEYTLTISSLQPDDFATYYCQQYWNSPFTFGQGTKLEIK | 1.8
humanized 03A01-VH1-VK3 (antibody, human IgG1, V domains shown, human IgG1 format; also called 03-VH1/VK3) VH: EVQFQESGPGLVKPSQTLSLTCTVTGYSITSDFAWNWIRQPPGKELEWMGYISYSGDTNYNPSLRSRITISRDTSKNQFSLKLSSVTAADTATYYCTIRGYYTDSAFVFWGQGTLVTVSS VL: DIQMTQSPSTLSASVGDRVTITCKASDHINNWLAWYQQKPGKAPKLLISGATSLETGVPSRFSGSGSGLEYTLTISSLQPDDFATYYCQQYWNSPFTFGQGTKLEIK | 1.7

Turning now to a further record.
Lookup: Answer with the recorded Fold Change to Parental Apparent KD for the binder listed here: Murine 03A01 (antibody, V domains shown, Recombinantly produced IgG; also called 03-parental; 03-Parent) VH: DVQFQESGPGLVKPSQSLSLTCTVTGYSITSDFAWNWIRQFPGNELEWMGYISYSGDTNYNPSLRSRISITRDTSKNQFFLQLDSVTTEDTATYYCTIRGYYTDSAFVFWGQGTLVTVSA VL: DIQMTQSSSYLSVSLGGRVTITCKASDHINNWLAWYQQKPGNAPRLLISGATSLETGVPSRFTGSGSGLDYTLSITSLQTEDVATYYCQQYWNSPFTFGSGTKLEIK
Found: 1
